TARGET OR SYSTEM: Aurora kinase B (Homo sapiens);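 note: reported percent inhibition is a mean value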
TEST PARAMETERS: at 1 µM
MEASURED ENDPOINT: inhibition (%)
One number for each entry, in %.

Please review the entries below; each comes with its answer.
Qu. Return value of inhibition for input NS(=O)(=O)c1cccc(-c2ccc3c(NC(=O)C4CC4)n[nH]c3c2)c1 , no commentary.
Ans. 1.24

Qu. Return value of inhibition for input COc1ccc(-c2coc3ncnc(N)c23)cc1 , no commentary.
Ans. 8.81

Qu. Return value of inhibition for input CCn1c(-c2nonc2N)nc2cnc(Oc3cccc(NC(=O)c4ccc(OCCN5CCOCC5)cc4)c3)cc21 , no commentary.
Ans. 8.22

Qu. Return value of inhibition for input COc1ccc(COc2ccc(Cc3cnc(N)nc3N)cc2OC)cc1 , no commentary.
Ans. 4.95

Qu. Return value of inhibition for input Nc1ncnc2occ(-c3ccc(NC(=O)Nc4cccc(C(F)(F)F)c4)cc3)c12 , no commentary.
Ans. 66.7

Would you be so kind as to report inhibition for each listed record?
1. COc1cccc(-n2ncc3c(N/N=C/c4cccc(F)c4)ncnc32)c1
2. NCc1ccc(-c2nc(-c3ccc(Cl)c(O)c3)c(-c3ccncc3)[nH]2)cc1
3. Nc1nc(-c2ccc3c(c2)C(=Cc2cc(Br)c(O)c(Br)c2)C(=O)N3)cs1
4. COc1ccccc1Nc1ncc(-c2ccccc2)o1
5. CS(=O)(=O)CCNCc1nc(-c2ccc3ncnc(Nc4ccc(F)c(Cl)c4)c3c2)cs1
6. CCCN1CCC=C(c2ccc(Nc3nc(Nc4ccccc4C(N)=O)c4cc[nH]c4n3)c(C)c2)C1

Ans.
1: 7.83; 2: 6.56; 3: 6.47; 4: 11.1; 5: 6.36; 6: 12.8
